So I've got a bunch of compounds here, and I need their Cmax values.
protocol-text: clinical
measurement-setup: human, in vivo, 750 mg
Give bare numbers, in ng/mL.

Documented Cmax of `O=c1ccn([C@@H]2O[C@H](CO)[C@@H](O)C2(F)F)c(=O)[nH]1` : 25600

The record that follows has no Cmax shown yet.
Documented Cmax of `Nc1ccn([C@@H]2O[C@H](CO)[C@@H](O)C2(F)F)c(=O)n1` : 12500

====

protocol-text: Plasma pharmacokinetics of tipifarnib (HPLC-UV) as monotherapy or with gemcitabine/cisplatin
Assay type: in vivo, human
measurement-setup: human, single 200 mg oral dose, tipifarnib as monotherapy (cycle 2 day 2), n=20, read-out: Cmax, mean (s.d.)
result-type: Cmax (ng/mL)
Answers are plain numbers, in ng/mL.

Documented Cmax of Cn1cncc1[C@@](N)(c1ccc(Cl)cc1)c1ccc2c(c1)c(-c1cccc(Cl)c1)cc(=O)n2C [tipifarnib] : 499

====

So I've got a bunch of compounds here, and I need their AUC(0-t) values.
protocol-text: clinical
measurement-setup: human, in vivo, 750 mg

Documented AUC(0-t) of O=c1ccn([C@@H]2O[C@H](CO)[C@@H](O)C2(F)F)c(=O)[nH]1 [dFdU, 2′, 2′ -difluoro-2′-deoxy-uridine] : 237 µg·h/mL

The record that follows has no AUC(0-t) shown yet.
Documented AUC(0-t) of Nc1ccn([C@@H]2O[C@H](CO)[C@@H](O)C2(F)F)c(=O)n1 [gemcitabine] : 6.71 µg·h/mL

====

protocol-text: Plasma pharmacokinetics of tipifarnib (HPLC-UV) as monotherapy or with gemcitabine/cisplatin
Assay type: in vivo, human
measurement-setup: human, single 200 mg oral dose, tipifarnib as monotherapy (cycle 2 day 2), n=20, read-out: AUC0-12, mean (s.d.)
result-type: AUC(0-t)
State the value, then name its unit.

Documented AUC(0-t) of `Cn1cncc1[C@@](N)(c1ccc(Cl)cc1)c1ccc2c(c1)c(-c1cccc(Cl)c1)cc(=O)n2C` : 2630 ng·h/mL
